Values from ChEMBL document CHEMBL5518248

Please respond with reported half-life for every item in the list.
assay: Half life in Sprague-Dawley rat at 10 mg/kg, iv measured upto 24 hrs LC-MS/MS analysis; type: ADME, organism-based; conditions: in vivo
Your answer is read as h, so omit the unit and give the number.

Exercise: // lookup half-life for `Cc1nc(-c2ccc(SSC(C)(C)C)cc2)ncc1C(=O)N[C@@H](CCN)C(=O)N(C)[C@@H]1C(=O)N[C@@H](C)C(=O)N[C@H](C(=O)NCC#N)Cc2ccc(OCCN)c(c2)-c2cc1ccc2OCCN`
Key: 2.8

Exercise: // lookup half-life for `Cc1nc(-c2ccc(CSSC(C)(C)C)cc2)ncc1C(=O)N[C@@H](CCN)C(=O)N(C)[C@@H]1C(=O)N[C@@H](C)C(=O)N[C@H](C(=O)NCC#N)Cc2ccc(OCCN)c(c2)-c2cc1ccc2OCCN`
Key: 4.18

Exercise: // lookup half-life for `CCCSSCc1ccc(-c2ncc(C(=O)N[C@@H](CCN)C(=O)N(C)[C@@H]3C(=O)N[C@@H](C)C(=O)N[C@H](C(=O)NCC#N)Cc4ccc(OCCN)c(c4)-c4cc3ccc4OCCN)c(C)n2)cc1`
Key: 0.37

Exercise: // lookup half-life for `CCCCSSCc1ccc(-c2ncc(C(=O)N[C@@H](CCN)C(=O)N(C)[C@@H]3C(=O)N[C@@H](C)C(=O)N[C@H](C(=O)NCC#N)Cc4ccc(OCCN)c(c4)-c4cc3ccc4OCCN)c(C)n2)cc1`
Key: 1.04

Exercise: // lookup half-life for `Cc1nc(-c2ccc(C(C)(C)C)cc2)ncc1C(=O)N[C@@H](CCN)C(=O)N(C)[C@@H]1C(=O)N[C@@H](C)C(=O)N[C@H](C(=O)NCC#N)Cc2ccc(OCCN)c(c2)-c2cc1ccc2OCCN.Cl.Cl.Cl.Cl`
Key: 1.51
